Values compiled from PubChem BioAssay (NCI).

Tested on: MALME-3M melanoma
Test: NCI tumour cell line growth inhibition, 48 h
This listing pairs compounds with measured TGI.

[
  {
    "compound": "c1ccc(C2(c3ccccc3)S/C(=C3/SC(c4ccccc4)(c4ccccc4)c4ccccc43)c3ccccc32)cc1",
    "relational_operator": ">",
    "TGI / µM": 100
  },
  {
    "compound": "COc1ccc2c(c1)CC[C@@H]1C2CC[C@]2(C)C(=N\\O)/C(=N/O)CC12 (stereo partly drawn)",
    "relational_operator": "=",
    "TGI / µM": 32.5
  },
  {
    "compound": "C=C(C)[C@@H]1CC[C@]2(C(=O)N3CCN(C)CC3)CC[C@]3(C)[C@H](CC[C@@H]4[C@@]5(C)C/C(=C/c6ccncc6)[C@H](O)C(C)(C)[C@@H]5CC[C@]43C)[C@@H]12",
    "relational_operator": "=",
    "TGI / µM": 6.07
  },
  {
    "compound": "O=C(CC(O)c1cccnc1)CC(O)c1cccnc1 (stereo not drawn)",
    "relational_operator": "=",
    "TGI / µM": 39.9
  },
  {
    "compound": "CCOC(=O)C1C(c2ccco2)C2(C#N)C(=N)OC1(C)C2(C#N)C#N (stereo not drawn)",
    "relational_operator": ">",
    "TGI / µM": 100
  },
  {
    "compound": "CCOc1ccc(NC(=O)/C(Cc2nc3ccccc3[nH]c2=O)=N\\O)cc1",
    "relational_operator": ">",
    "TGI / µM": 100
  },
  {
    "compound": "CC12CCC(=O)N1c1cc([N+](=O)[O-])ccc1N2 (stereo not drawn)",
    "relational_operator": ">",
    "TGI / µM": 100
  },
  {
    "compound": "Cc1cc(NCCCNc2ccnc3cc(Cl)ccc23)nc(Nc2ccc(C(=O)N3CCCCC3)cc2)n1",
    "relational_operator": "=",
    "TGI / µM": 4.15
  }
]
